The measurements presented in this section are drawn from ChEMBL document CHEMBL1125541.

assay: Compound was tested in vitro for antiviral activity against Punta Toro (PT) virus (Concentration which was cytotoxic to 50% of uninfected cells); details: read-out: TC50 (the source's name)

compound	CC50
NC(=O)CC(/N=C(/N)c1ncn(C2O[C@H](CO)[C@@H](O)[C@H]2O)n1)C(=O)O (stereo partly drawn)	> 3200 µg/mL
C/N=C(\NC)c1ncn([C@@H]2O[C@H](CO)[C@@H](O)[C@H]2O)n1.Cl	2900 µg/mL
CCCC/N=C(/N)c1ncn(C2O[C@H](CO)[C@@H](O)[C@H]2O)n1 (stereo partly drawn)	660 µg/mL
Cl.OC[C@H]1O[C@@H](n2cnc(C3=NCC(O)CN3)n2)[C@H](O)[C@@H]1O (stereo partly drawn)	> 320 µg/mL
CCCCCCCC/N=C(/N)c1ncn(C2O[C@H](CO)[C@@H](O)[C@H]2O)n1 (stereo partly drawn)	> 1000 µg/mL
Cl.N=C(N)c1ncn([C@@H]2O[C@H](CO)[C@@H](O)[C@H]2O)n1 [TARIBAVIRIN HYDROCHLORIDE]	752 µg/mL
N/C(=N/CC(=O)O)c1ncn(C2O[C@H](CO)[C@@H](O)[C@H]2O)n1 (stereo partly drawn)	> 1000 µg/mL
CNC(=O)c1ncn([C@@H]2O[C@H](CO)[C@@H](O)[C@H]2O)n1	> 320 µg/mL
C/N=C(/N)c1ncn([C@@H]2O[C@H](CO)[C@@H](O)[C@H]2O)n1.Cl	> 1000 µg/mL
COC(=N)c1ncn([C@@H]2O[C@H](CO)[C@@H](O)[C@H]2O)n1	744 µg/mL
NC(=O)CCC(/N=C(/N)c1ncn(C2O[C@H](CO)[C@@H](O)[C@H]2O)n1)C(=O)O (stereo partly drawn)	> 3200 µg/mL
N#C/N=C(/N)c1ncn(C2O[C@H](CO)[C@@H](O)[C@H]2O)n1 (stereo partly drawn)	> 1000 µg/mL
Cl.OC[C@H]1O[C@@H](n2cnc(C3=NCCCN3)n2)[C@H](O)[C@@H]1O	> 3200 µg/mL

----------
assay: Therapeutic index is expressed as ratio of TC50/IC50; details: read-out: TI50

compound	selectivity ratio
CCCCCCCC/N=C(/N)c1ncn(C2O[C@H](CO)[C@@H](O)[C@H]2O)n1 (some centres undefined)	> 3
N/C(=N/CC(=O)O)c1ncn(C2O[C@H](CO)[C@@H](O)[C@H]2O)n1 (some centres undefined)	> 5.66
CCCC/N=C(/N)c1ncn(C2O[C@H](CO)[C@@H](O)[C@H]2O)n1 (some centres undefined)	13.7
N#C/N=C(/N)c1ncn(C2O[C@H](CO)[C@@H](O)[C@H]2O)n1 (some centres undefined)	> 1

----------
experiment: Compound was tested in vitro for antiviral activity against sandfly fever-Sicilian (SF) virus (Concentration which was cytotoxic to 50% of uninfected cells); settings: read-out: TC50 (the source's name)
# CC50 per entry

compound	CC50
C/N=C(/N)c1ncn([C@@H]2O[C@H](CO)[C@@H](O)[C@H]2O)n1.Cl	> 1000 µg/mL
CNC(=O)c1ncn([C@@H]2O[C@H](CO)[C@@H](O)[C@H]2O)n1	> 320 µg/mL
COC(=N)c1ncn([C@@H]2O[C@H](CO)[C@@H](O)[C@H]2O)n1	840 µg/mL
N/C(=N/CC(=O)O)c1ncn(C2O[C@H](CO)[C@@H](O)[C@H]2O)n1 (stereo not given in full)	> 3200 µg/mL
NC(=O)CC(/N=C(/N)c1ncn(C2O[C@H](CO)[C@@H](O)[C@H]2O)n1)C(=O)O (stereo not given in full)	> 3200 µg/mL
